target.under.test: T1, cynomolgus galectin-10-His, YRT isoform (cynomolgus)
T1 construct: also called cynoGal10-YRT; not shown: His tag
T1 chain: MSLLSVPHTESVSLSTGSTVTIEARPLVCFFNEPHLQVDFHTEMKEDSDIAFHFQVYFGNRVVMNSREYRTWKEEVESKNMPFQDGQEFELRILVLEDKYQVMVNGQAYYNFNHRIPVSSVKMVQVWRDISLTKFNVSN
assay.name: ELISA, coated antigen 0.2 ug/mL
Please mark yes if the recorded Bmax is equal to or greater than 3 OD, and no if it falls below.

- binder: "7B07 scFv-human Fc (Fc fusion, also called 007B07; not shown: CH2-CH3 constant domains of human IgG1 (pUPEX50 scFv-Fc fusion vector)) scFv: QVQLVESGGGLVQPGGSLRLSCAASGFTFRSYDMSWVRQAPGKGPEWVSAIKNGGGITYYADSVKGRFTISRDNAKNTLYLQMNSLKPEDTAVYYCATTHGIGTLGFGSWGQGTQVTVSSGGGGSGGGGSGGGGSSYELTQSASVSVALTQTAKITCDGNNIGSKSAQWYQQKPGQAPALVIYADEYRPEGIPERFSGSNSGNTATLIISGAQAEDEADYYCQVWDGSAAVFGRGTHLTVL"
  class.name: "no"
- binder: "10D02 scFv-human Fc (Fc fusion, also called 010D02; not shown: CH2-CH3 constant domains of human IgG1 (pUPEX50 scFv-Fc fusion vector)) scFv: EVQLVESGGGLVQPGGSLRVSCAASGFTFSSYYMSWVRQAPGKGLEWVSGIVTGGGRTHYTDSVKGRFTITRDNAKNTLYLQMNSLRPEDTALYYCARVNGVVTNYDYWGQGTQVTVSSGGGGSGGGGSGGGGSQAVLTQPPSVSGSPGKTVTISCAGTSSDVGYGNYVSWYQQLPGMAPKLLIYDVNKRASGITDRFSGSKSGNTASLTISGLQSEDEADYFCASYRSPNNVVFGQGTHLTVL"
  class.name: "no"
- binder: "11F02 scFv-human Fc (Fc fusion, also called 011F02; not shown: CH2-CH3 constant domains of human IgG1 (pUPEX50 scFv-Fc fusion vector)) scFv: ELQVVESGGGLVQPGGSLRLSCAASGFTFSTNYMNWVRQAPGKGLEWVSGITSHGARTYYADSVKGRFTISRDNSKNTLYLQMNSLKPEDTALYYCARTDHASLDAWGQGTLVTVSSGGGGSGGGGSGGGGSQTVVTQEPSLSVSPGGTVTLTCGLSSGSVTSSNYPGWYQQKPGQAPRTLIYNTNSRYSGVPNRFSGSISGNKAALTITGAQPEDEADYYCALYMGSSSYNTVFGGGTHLTVL"
  class.name: "no"
- binder: "10B02 scFv-human Fc (Fc fusion, also called 010B02; not shown: CH2-CH3 constant domains of human IgG1 (pUPEX50 scFv-Fc fusion vector)) scFv: QVQLVESGGGLVQPGGSLRVSCAASGFTFSYHYMNWVRQAPGKGLEWVSGISAGGGRTYYADSVKGRFTISRDNAKNTLYLQMNSLNAEDTALYYCARVHGITNDYWGQGTQVTVSSGGGGSGGGGSGGGGSQSALTQPPSVSGSPGKTVTISCAGTSSDVGYGNYVSWYQQLPGMAPKLLIYEVNKRASGITDRFSGSKSGNTAFLTISGLQSEDEADYYCASYRNSNNWVFGGGTHLTVL"
  class.name: "yes"

Value source: patent US20190367619A1
